# TARGET_OR_SYSTEM: human GABAA α1β3γ2 receptor (Homo sapiens (Human), UniProt P14867+P18507)
# ASSAY_OVERVIEW: Radioligand binding assay for γ2-containing GABAA subtypes, [3H]Flumazenil competition (α1β3γ2)
PROPERTY_MEASURED: pKi
Note on pKi: it is the negative log10 of concentration, concentration in mol/L.

{"columns": ["LINE_NOTATION", "MEAS_VALUE"],
 "data": [
  ["C[C@@H]1N=C(c2c(F)cccc2F)c2c(ccc(Cl)c2Cl)-n2cc(C(=O)N3CC(C#N)C3)nc21", 6.41],
  ["Fc1cccc(F)c1C1=NCc2nc(C(F)F)cn2-c2ccc(Br)c(Cl)c21", 6.34],
  ["[2H]C([2H])([2H])NC(=O)c1nc2n(n1)-c1ccc(Cl)c(Cl)c1C(c1c(F)cccc1F)=N[C@H]2C", 6.23]
]}

What the record says about C[C@@H]1N=C(c2c(F)cccc2F)c2c(ccc(Cl)c2Cl)-n2nc(C3COC3)nc21 : pKi is 6.25

What the record says about C[C@@H]1N=C(c2c(F)cccc2F)c2c(ccc(Cl)c2Cl)-n2nc(NC(=O)N3CC(F)C3)nc21 : pKi is 6.09

What the record says about C[C@@H]1N=C(c2c(F)cccc2F)c2c(ccc(Cl)c2Cl)-n2cc(C#N)nc21 : pKi is 6.23

---

# TARGET_OR_SYSTEM: human GABAA α2β2γ1 receptor (Homo sapiens (Human), UniProt P47869+Q8N1C3)
# ASSAY_OVERVIEW: Radioligand binding assay for γ1-containing GABAA subtypes, [3H]RO7239181 competition (α2β2γ1)
# EXPERIMENTAL_SETUP: Ki h-GABAA α2β2γ1, displacement of [3H]RO7239181, membranes of HEK293F cells expressing human receptors, means of two determinations
Items are presented alongside their recorded Ki.
Lab book: enter the figure in nM, no units written.

{"columns": ["COMPOUND", "MEAS_VALUE"],
 "data": [
  ["C[C@@H]1N=C(c2c(F)cccc2F)c2c(ccc(Cl)c2Cl)-n2nc(C(=O)N3CC(C(F)F)C3)nc21 [Example 75]", 13.8],
  ["C[C@@H]1N=C(c2ncccc2F)c2c(ccc(C(F)(F)F)c2Cl)-n2nc(C(=O)N3CCC3)nc21 [Example 85]", 60.9]
]}

Entry C[C@@H]1N=C(c2ncccc2F)c2c(ccc(C(F)(F)F)c2Cl)-n2nc(C(=O)NCCO)nc21 [Example 138] ; assay system human GABAA α2β2γ1 receptor (Homo sapiens (Human), UniProt P47869+Q8N1C3); Ki recorded at 89.6

Entry COC1CN(C(=O)c2nc3n(n2)-c2ccc(C(F)(F)F)c(Cl)c2C(c2c(F)cccc2F)=NC3)C1 [Example 37] ; assay system human GABAA α2β2γ1 receptor (Homo sapiens (Human), UniProt P47869+Q8N1C3); Ki recorded at 4.49

Entry CNS(=O)(=O)c1nc2n(n1)-c1ccc(Cl)c(Cl)c1C(c1c(F)cccc1F)=N[C@H]2C [Example 73] ; assay system human GABAA α2β2γ1 receptor (Homo sapiens (Human), UniProt P47869+Q8N1C3); Ki recorded at 49.1

Entry CN(C)C(=O)c1nc2n(n1)-c1ccc(Cl)c(Cl)c1C(c1c(F)cccc1F)=NC2 [Example 9] ; assay system human GABAA α2β2γ1 receptor (Homo sapiens (Human), UniProt P47869+Q8N1C3); Ki recorded at 5.5

Entry C[C@@H]1N=C(c2c(F)cccc2F)c2c(ccc(Cl)c2Cl)-n2nc(C(=O)NC3COC3)nc21 [Example 55] ; assay system human GABAA α2β2γ1 receptor (Homo sapiens (Human), UniProt P47869+Q8N1C3); Ki recorded at 5.4
